Item-by-item account of IC50
target_of_assay: Human SSAO (Homo sapiens, UniProt Q16853)
Construct: rat lung or human umbilical cord homogenates were prepared by chopping the freshly removed tissue; from tissue; host or cells: human umbilical cord homogenate (25,000 g supernatant)
Sequence (Q16853 whole entry): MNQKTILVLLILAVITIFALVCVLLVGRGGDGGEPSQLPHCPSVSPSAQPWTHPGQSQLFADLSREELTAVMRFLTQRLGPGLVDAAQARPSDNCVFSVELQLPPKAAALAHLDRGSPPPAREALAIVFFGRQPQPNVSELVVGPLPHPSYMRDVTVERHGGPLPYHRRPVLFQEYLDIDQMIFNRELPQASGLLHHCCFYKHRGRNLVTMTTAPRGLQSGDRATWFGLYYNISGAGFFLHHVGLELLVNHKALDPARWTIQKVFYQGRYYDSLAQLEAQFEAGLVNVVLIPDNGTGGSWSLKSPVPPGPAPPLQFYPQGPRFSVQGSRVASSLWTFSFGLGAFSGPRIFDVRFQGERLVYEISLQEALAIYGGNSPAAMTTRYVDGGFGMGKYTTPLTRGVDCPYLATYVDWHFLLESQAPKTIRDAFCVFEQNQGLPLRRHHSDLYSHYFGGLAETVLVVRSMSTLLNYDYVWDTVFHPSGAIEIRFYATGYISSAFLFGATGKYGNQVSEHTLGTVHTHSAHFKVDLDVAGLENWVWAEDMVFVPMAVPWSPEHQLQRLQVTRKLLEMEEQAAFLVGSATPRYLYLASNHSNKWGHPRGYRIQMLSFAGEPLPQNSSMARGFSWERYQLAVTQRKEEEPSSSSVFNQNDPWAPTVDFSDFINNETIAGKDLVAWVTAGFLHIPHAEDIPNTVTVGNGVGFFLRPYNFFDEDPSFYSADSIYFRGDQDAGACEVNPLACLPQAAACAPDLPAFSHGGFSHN
experiment_notes: In vitro inhibition of SSAO activity, human umbilical cord homogenate, 14C-benzylamine
Type: biochemical
particulars: human umbilical cord homogenate; read-out: Human SSAO IC50
Structures can show the parent of a compound that is named as a salt.
Give your result in nM as a bare value.

Example entries and their recorded answers appear below.
Cl.NC/C(F)=C\Cc1cccc(OC(F)(F)F)c1 [II-10-E, hydrochloride] : 18
COc1ccc(CC/C(=C/F)CN)cc1.Cl [Compound I-102-Z, hydrochloride] : 30
CSc1cccc(C/C=C(/F)CN)c1.Cl [II-13-E, hydrochloride] : 10
NC/C(=C\Cl)CCc1cc(F)cc(C(F)(F)F)c1.O=C(O)C(F)(F)F [Compound I-40-Z, trifluoroacetate] : 920
CCOc1ccc(C/C(=C\F)CN)cc1.Cl [Compound I-2-E, hydrochloride] : 9
COc1cccc(CCC(=O)CN)c1 [IV-8, 1-amino-4-(3-methoxyphenyl)butan-2-one] : 3700
CC(C)Oc1ccc(C/C(=C\F)CN)cc1 [Compound I-8-E, hydrochloride] : 11.4
NC/C(F)=C\Cc1cc(F)cc(C(F)(F)F)c1 [II-1-E] : 36

Would you kindly look at the next entry?
For record COc1cccc(OC/C=C(/F)CN)c1 [II-19-E] the listed IC50 is 160
